All figures here come from the EternaBench riboswitch data.

- Test system: MS2 coat protein
- MEASUREMENT PROTOCOL: apparent Kd, MS2 coat protein; higher = weaker binding; RNA-MaP array; theophylline 2 mM where present
- CONDITION DESCRIPTION: designed as: OFF switch for theophylline; no ligand
PROPERTY LABEL: apparent Kd (nM)
# unit: nM | format: bare number

Some solved entries appear below for comparison.
INSERT INTO measurements (ordered_residues, property_label, readout_unit, recorded_result) VALUES
  ('GAGCUGAUGUAGAGAUUAUAUAAAAGAGAUACCAGUACAGAAAUGUACCCUUGGCAGCUCAACUUUACAUGAGGAUCACCCAUGU', 'apparent Kd', 'nM', 14.8),
  ('AGCUCAUAGAGUGAUACCAGACUACAUGAGGAUCACCCAUGUUACUUUUAAAUAUCAUUUGUCCCUUGGCAGCACAUGAAGAGCA', 'apparent Kd', 'nM', 13.6),
  ('GAUGAACUAUGUGAUACCAGACAACAUGAGGAUCACCCAUGUGCGCGUCGUCCUCUGCCUGUCCCUUGGCAGCGUAUAGUUUAUC', 'apparent Kd', 'nM', 60.3),
  ('ACAUGAGCAUCAGCCUUGUAGGAACUAGAUACCAGCCCAACAUGAGGCCCUUGGCAGCUGACAACAUGAGGAUCACCCAUGUCAC', 'apparent Kd', 'nM', 36.2),
  ('UCAUAUUAGAUAGAUGUAAGGUAUCAUGAUACCAGUAGAUAAUUAUACCCUUGGCAGCAUAACAUGAGGAUCACCCAUGUACAUG', 'apparent Kd', 'nM', 21.3),
  ('UGACAUUGCUCAGAUACCAGACAUGAGGAUCACCCAUGUGCCAAAUAAACGUACAUAAAUGUCCCUUGGCAGCUGAGCAAUGUCU', 'apparent Kd', 'nM', 57.5),
  ('AACAUACAUGAGGAUCACCCAUGUCACGAUACCAGAUACAUGAGGAUCCCUUGGCAGCGUCAUGAGGAUCACCCAUGUUGUACAU', 'apparent Kd', 'nM', 16.5),
  ('GAUGAACUAUUUGAUACCAGACAACAUGAGGAUCACCCAUGUGCGCGUCGUCCUCUGCCUGUCCCUUGGCAGCAAAUAGUUUAUC', 'apparent Kd', 'nM', 58.5);

Please look up its apparent Kd: UACAUGAGGAUCACCCAUGUAUGAAUGGAUACCAGAUAAAAUAAGGUCCCUUGGCAGCUAGUGAAUCGAGGGUGGGUAUCAUGAU
11.2

Please look up its apparent Kd: AGCAGUACAACAGAUACCAGACUUUUAAUGCCUCUAAUUACAUGAGGAUCACCCAUGUUUGUCCCUUGGCAGCUGUUGUACUGCA
136

Please look up its apparent Kd: AAGGGAGAAUCAGAUACCAGAGUAAGAUGGCAUGAUAAUUACAUGAGGAUCACCCAUGUACUCCCUUGGCAGCUGACAAUAUAUU
10.2

---

- System: MS2 coat protein
- MEASUREMENT PROTOCOL: apparent Kd, MS2 coat protein; higher = weaker binding; RNA-MaP array; theophylline 2 mM where present
- CONDITION DESCRIPTION: designed as: OFF switch for theophylline; no ligand
PROPERTY LABEL: apparent Kd
Entry format: amount then unit.

Some solved entries appear below for comparison.
INSERT INTO assay_data (ordered_residues, property_label, recorded_result) VALUES
  ('ACAUCCAGAUUAAUCGUGGGCAUACUCGAUACCAGUAUUUUAACCUACCCUUGGCAGCGACAUGAGGAUCACCCAUGUGAGAUGA', 'apparent Kd', '22.8 nM'),
  ('GAUGAACUAUAUGAUACCAGACAACAUGAGGAUCACCCAUGUGUAUGUCGUCCUCUGCCUGUCCCUUGGCAGCGUAUAGUUUAUC', 'apparent Kd', '32.4 nM'),
  ('AUUUACAUGGUCAUAUAUAUAUCGUCAGAUACCAGACUAGAUAUAGUCCCUUGGCAGCUGUUACAUGAGGAUCACCCAUGUUAUA', 'apparent Kd', '129 nM');

Proceed to the following item.
Please look up its apparent Kd: AGCAUUGUAACAGAUACCAGACUUUUAAUGCCUCUAAUUACAUGAGGAUCACCCAUGUUUGUCCCUUGGCAGCUGUUAUGAUGCA
119 nM

---

- System: MS2 coat protein
- MEASUREMENT PROTOCOL: apparent Kd, MS2 coat protein; higher = weaker binding; RNA-MaP array; FMN 200 µM where present
- CONDITION DESCRIPTION: ligand present: flavin mononucleotide; designed as: OFF switch for flavin mononucleotide
Label TRUE when apparent Kd >= 100 nM; otherwise FALSE.

Confirm if apparent Kd reported for the sequence AAUUAUAUACAGAAGGAGUUAUAUUAAGUAUUACUAGGAUAUGUUCACAUGAGGAUCACCCAUGUCAUAUUGGGAUUUAUUUUU is 100 nM or above.
FALSE

Confirm if apparent Kd reported for the sequence GCACGGUUGGUAGGAUAUCAUUGCGAUUAGCUAUGAGAAGGACCACAUGAGGAUCACCCAUGUCCUCUAAUUAGCCUGCCGUGC is 100 nM or above.
TRUE

Confirm if apparent Kd reported for the sequence GGGCUGGGAGGAUAUUCAUUGGGAAACAUGAGGAUCACCCAUGUGAUAUAAGGGAAAUCCGGAGAAGGCUCGGUUC is 100 nM or above.
FALSE

Confirm if apparent Kd reported for the sequence AACUGACAUGAGGAUCACCCAUGUCAGGAUAUGAUUUGACGAAAUAAAACACGUCAUAUCAGAAGGGACAUGGA is 100 nM or above.
FALSE

Confirm if apparent Kd reported for the sequence UUGUUAGGGAGAGGAUAUUGACAUGAGGAUCACCCAUGUAUUUGGGAGUGUUUACUGAAUUCUCACGAGAAGGCUUACAAAUUU is 100 nM or above.
TRUE

Confirm if apparent Kd reported for the sequence AAUAUGUCAUCAGGAUAUCGAGACCGGCGAGUACGAGAAGGGAUGACAUGAGGAUCACCCAUGUGAGACGCGUGAUUUGCAGGU is 100 nM or above.
TRUE

---

- System: MS2 coat protein
- MEASUREMENT PROTOCOL: apparent Kd, MS2 coat protein; higher = weaker binding; RNA-MaP array
- CONDITION DESCRIPTION: ligand present: flavin mononucleotide; designed as: OFF switch for flavin mononucleotide
PROPERTY LABEL: apparent Kd
Entry format: amount then unit.

Some solved entries appear below for comparison.
INSERT INTO measurements (ordered_residues, study_system, recorded_result) VALUES
  ('ACAUGAGGAUCACCCAUGUUAUAGGGCAGGGAACGGAGCAUCUAGGAUAUUGUACACCGGCUACACAAGAAGGAGACCGAAGCU', 'MS2 coat protein', '12.3 nM'),
  ('GCACCGCGAGGAUAUACUCUGGCUAUAAUACCAUAUGACAAACAUGAGGAUCACCCAUGUAGAAGGCGCGAUGU', 'MS2 coat protein', '14.2 nM'),
  ('UCCCGCUGCACAGGAUAUUGGAAAAUACAUGAGGAUCACCCAUGUGCUUAUAUGAGGUCUGCCUCCAAGAAGGGUGAGAUAAUC', 'MS2 coat protein', '89.6 nM');

Please look up its apparent Kd: AAAACUUCUAAGAAGGUGAUUUGGGCAUAUCGUCGUUUUACAUGAGGAUCACCCAUGUUUAACGUCAAGGAUAUUAGGGAUUCC
5.9 nM

Please look up its apparent Kd: AGUACAUCGGAGAAGGUGCAAGGUUAGCUUUCGCAAGGAUAUCCACACCCUUAGUACAGUGCUACAUGAGGAUCACCCAUGUUA
10.2 nM

Please look up its apparent Kd: AGUUCACAGGUGAGGAUAUCGGAGCACACAGACAGCGAGAAGGCACAUGAGGAUCACCCAUGUGGUCAGAAAAC
10.8 nM

Please look up its apparent Kd: ACGAUGAUAGAAGGAUAUAGGCCGAACAUGAGGGACAUGAGGAUCACCCAUGUGACAGUCGGACCCUAGAAGGUCUCGAUACUC
15.1 nM

---

- Test system: MS2 coat protein
- MEASUREMENT PROTOCOL: apparent Kd, MS2 coat protein; higher = weaker binding; RNA-MaP array
- CONDITION DESCRIPTION: ligand present: flavin mononucleotide; designed as: ON switch for flavin mononucleotide
Label met when apparent Kd >= 20 nM; otherwise not met.

Before answering, review these 3 worked examples.
INSERT INTO measurements (ordered_residues, study_system, label) VALUES
  ('AAGUACUUUGAGAAGGACCUCUCGAACAUGAGGAUCACCCAUGUCACGGAGUACCCGAUCGGCUGGUAGGAUAUCAUGGUACCG', 'MS2 coat protein', 'not met'),
  ('GACGGACAUGAGGAUCACCCAUGUUCUGGCAGCGUAGGAUAUGAAGGGAUGAUUGUACGUUCAGAAGGACGACCUG', 'MS2 coat protein', 'not met'),
  ('UCAUAUUAAGGCGAGGAUAUACACGAUCCCACAUGAGGAUCACCCAUGUUUUGAUCAUGCCCUGUGUAGAAGGCGCACCUACGGGA', 'MS2 coat protein', 'met');

Confirm if apparent Kd reported for the sequence GCAGAUACCAUGAGUCGACAUGAGGAUCACCCAUGUACUCCCAGAAGGAUGUACUUUGUUCAAGCAUAGGAUAUGGGCCGAACC is 20 nM or above.
met

Confirm if apparent Kd reported for the sequence CCGGCAACGUAAGGAUAUGAUUCGCGUCUUGACAUGAGGAUCACCCAUGUAACUGUCGAAAUGGCUCAGAAGGUACCAGUGCCC is 20 nM or above.
not met
